Molecular target: hCB2 receptor (Homo sapiens, UniProt P34972)
Sequence (P34972 whole entry): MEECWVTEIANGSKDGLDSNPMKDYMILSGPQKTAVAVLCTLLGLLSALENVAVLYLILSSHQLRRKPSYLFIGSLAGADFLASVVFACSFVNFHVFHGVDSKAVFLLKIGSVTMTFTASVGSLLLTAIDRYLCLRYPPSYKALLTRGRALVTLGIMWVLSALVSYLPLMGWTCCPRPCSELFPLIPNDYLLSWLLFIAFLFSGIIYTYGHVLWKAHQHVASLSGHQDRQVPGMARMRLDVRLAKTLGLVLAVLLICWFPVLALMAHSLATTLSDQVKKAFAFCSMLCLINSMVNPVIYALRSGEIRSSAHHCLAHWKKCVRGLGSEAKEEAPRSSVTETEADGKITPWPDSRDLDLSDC
Experiment: Equilibrium binding / displacement of fluorescent pepcan-F4 on CHO-K1-hCB2 cells
Design: expressed in transfected cells; host or cells: CHO-K1
Conditions: specific saturation curve, read-out: apparent Kd for hCB2 receptors
MEASURED_QUANTITY: Kd (nM)
Express it in nM; write the number only.

Task item: Return value of Kd for input pepcan-F4: C-terminal fluorescence-labeled (fluorescein) pepcan-12 conjugate (RVDPVNFKLLSH; synthetic pepcan-12 (alpha-hemoglobin fragment) , no commentary.
Reply: 123

---

Biological target: hCB2 receptor (Homo sapiens)
Assay: cAMP assay in CHO-K1-hCB2 cells (GloSensor)
Assay type: cell-based
Parameters: expressed in transfected cells; host or cells: CHO-K1
Conditions: 2-AG, pepcan-12 10 nM; mean (95% CI)
MEASURED_QUANTITY: EC50
Please answer using the number first and the unit second.

Task item: Return value of EC50 for input CCCCC/C=C\C/C=C\C/C=C\C/C=C\CCCC(=O)OC(CO)CO [Pepcan 2-AG, 2-arachidonoyl glycerol] , no commentary.
Reply: 102 nM

---

Target: hCB2 receptor (Homo sapiens, UniProt P34972)
Experiment: [35S]GTPγS assay on hCB2 membranes
Format: biochemical
Parameters: expressed in transfected cells; host or cells: CHO-K1
Conditions: 2-AG, pepcan-12 0 nM; mean (95% CI)
MEASURED_QUANTITY: pEC50
Value format note: pEC50 is -log10 of concentration (mol/L); just state the number.

Task item: Enter recorded pEC50 with hCB2 receptor (Homo sapiens, UniProt P34972) for CCCCC/C=C\C/C=C\C/C=C\C/C=C\CCCC(=O)OC(CO)CO [Pepcan 2-AG, 2-arachidonoyl glycerol] here.
Reply: 7.02

---

Target: hCB2 receptor (Homo sapiens, UniProt P34972)
Assay: cAMP assay in CHO-K1-hCB2 cells (GloSensor)
Format: cell-based
Parameters: expressed in transfected cells; host or cells: CHO-K1
Conditions: 2-AG, pepcan-12 30 nM; mean (95% CI)
MEASURED_QUANTITY: EC50

Task item: Enter recorded EC50 with hCB2 receptor (Homo sapiens, UniProt P34972) for CCCCC/C=C\C/C=C\C/C=C\C/C=C\CCCC(=O)OC(CO)CO [Pepcan 2-AG, 2-arachidonoyl glycerol] here.
Reply: 25.1 nM

---

Biological target: hCB2 receptor (Homo sapiens, UniProt P34972)
Assay: [35S]GTPγS assay on hCB2 membranes
Type: biochemical
Design: expressed in transfected cells; host or cells: CHO-K1
Conditions: 2-AG, pepcan-12 30 nM; mean (95% CI)
MEASURED_QUANTITY: EC50 (nM)
Express it in nM; write the number only.

Task item: Enter recorded EC50 with hCB2 receptor (Homo sapiens, UniProt P34972) for "CCCCC/C=C\C/C=C\C/C=C\C/C=C\CCCC(=O)OC(CO)CO" here.
Reply: 40.9

---

Target: hCB2 receptor (Homo sapiens, UniProt P34972)
Assay: cAMP assay in CHO-K1-hCB2 cells (GloSensor)
Format: cell-based
Set-up: expressed in transfected cells; host or cells: CHO-K1
Details: 2-AG, pepcan-12 0 nM; mean (95% CI)
MEASURED_QUANTITY: EC50 (nM)
Express it in nM; write the number only.

Task item: Return value of EC50 for input "CCCCC/C=C\C/C=C\C/C=C\C/C=C\CCCC(=O)OC(CO)CO" , no commentary.
Reply: 92.1

---

Molecular target: UniProt:P34972
Test: [35S]GTPγS assay on hCB2 membranes
Format: biochemical
Parameters: expressed in transfected cells; host or cells: CHO-K1
Conditions: 2-AG, pepcan-12 100 nM; mean (95% CI)
MEASURED_QUANTITY: pEC50
Value format note: pEC50 is -log10 of concentration (mol/L); just state the number.

Task item: Enter recorded pEC50 with UniProt:P34972 for "CCCCC/C=C\C/C=C\C/C=C\C/C=C\CCCC(=O)OC(CO)CO" here.
Reply: 7.45

---

Target: hCB2 receptor (Homo sapiens, UniProt P34972)
Assay: Equilibrium binding / displacement of fluorescent pepcan-F4 on CHO-K1-hCB2 cells
Parameters: expressed in transfected cells; host or cells: CHO-K1
Conditions: 100 nM pepcan-F4
No end group written: not given here.
MEASURED_QUANTITY: Ki (nM)
Express it in nM; write the number only.

Task item: Return value of Ki for input HAHKLRVDPVNFKLLSH [Pepcan-17] , no commentary.
Reply: 183

Task item: Return value of Ki for input HKLRVDPVNFKLLSH [Pepcan-15] , no commentary.
Reply: 77.8
